This collection of values is drawn from patent US20180194762A1.

Biological target: Btk (Homo sapiens)
Construct: purified from insect cells as a full-length construct containing a N-terminal 6X-His tag; His6 (N); made in house; host or cells: insect cells (Method C)
Experiment: Btk in vitro inhibitory activity (one of Method A TR-FRET, Method B electrophoretic mobility shift, Method C radiometric filter binding)
Format: biochemical
Details: wild-type Btk; read-out: Btk-WT IC50
measured-parameter: IC50 (nM)

>  <compound>
CC(C)(C)c1ccc(C(=O)NCc2ccc(-c3ccnc4[nH]nc(N[C@@H]5CCNC5)c34)cc2F)cc1

>  <recorded-value>
144

$$$$

A. CC(C)(C)c1nc(C(=O)NC2(c3ccc(-c4ccnc5[nH]nc(NC6CCCN(C=O)C6)c45)cc3)CC2)no1 (stereo not shown)
B. CC#CC(=O)N1CC[C@@H](Nc2n[nH]c3nccc(-c4ccc(CNC(=O)c5cc(C(C)(C)C)on5)c(F)c4)c23)C1
C. C=CC(=O)N1CC[C@@H](Nc2n[nH]c3nccc(-c4ccc(CNC(=O)c5cnc(C(C)C)o5)c(F)c4)c23)C1
D. CN(C)C(=O)N1CC[C@@H](Nc2n[nH]c3nccc(-c4ccc(CNC(=O)c5coc(C6CCC6)n5)c(F)c4)c23)C1
E. CC(C)(C)c1nc(C(=O)NCc2ccc(-c3ccnc4[nH]nc(NC5CCNCC5)c34)cc2F)no1
Task item: With regard to IC50, arrange the entries in ascending order, please. Reply with the labels, ordered as the question asks.
Reply: B, C, E, A, D

* * *

The next entries give measured IC50 for panel of kinases (Homo sapiens).
measured-parameter: IC50 (nM)

>  <compound>
C=CC(=O)N1CC[C@@H](Nc2n[nH]c3nccc(-c4ccc([C@@H](C)NC(=O)c5noc(C(C)(C)C)n5)cc4)c23)C1 [Example 98]

>  <target-system>
panel of kinases (Homo sapiens)
Sequence (P51813 whole entry): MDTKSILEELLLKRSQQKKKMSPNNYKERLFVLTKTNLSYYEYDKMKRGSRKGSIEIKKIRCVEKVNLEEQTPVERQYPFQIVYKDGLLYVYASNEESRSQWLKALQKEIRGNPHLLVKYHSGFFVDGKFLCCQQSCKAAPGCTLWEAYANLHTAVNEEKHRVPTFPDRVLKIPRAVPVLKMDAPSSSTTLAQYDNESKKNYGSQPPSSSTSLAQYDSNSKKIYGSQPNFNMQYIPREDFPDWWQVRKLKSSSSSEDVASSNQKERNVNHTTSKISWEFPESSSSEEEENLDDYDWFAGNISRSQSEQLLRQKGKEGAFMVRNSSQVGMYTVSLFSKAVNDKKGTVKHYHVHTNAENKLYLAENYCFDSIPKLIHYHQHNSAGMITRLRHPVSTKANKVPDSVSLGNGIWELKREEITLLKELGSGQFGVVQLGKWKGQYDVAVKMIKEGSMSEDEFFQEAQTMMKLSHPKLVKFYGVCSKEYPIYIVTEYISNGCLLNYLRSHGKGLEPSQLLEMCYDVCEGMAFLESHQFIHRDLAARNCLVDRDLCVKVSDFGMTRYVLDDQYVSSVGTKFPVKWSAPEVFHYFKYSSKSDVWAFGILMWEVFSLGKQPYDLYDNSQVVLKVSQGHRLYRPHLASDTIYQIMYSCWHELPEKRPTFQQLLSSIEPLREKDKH

>  <recorded-value>
239

$$$$

I. C=CC(=O)N1CCC(Nc2n[nH]c3nccc(-c4ccc(CNC(=O)c5noc(C(C)(C)C)n5)c(F)c4)c23)CC1 [Example 105]
II. C=CC(=O)N[C@@H]1CCN(c2n[nH]c3nccc(-c4ccc(CNC(=O)c5coc(C(C)C)n5)c(F)c4)c23)C1 [Example 359]
Task item: Problem: Given the entries I and II , determine which has the lower reported IC50. Identify your selection by its label.
Reply: II
(II: 58.8 nM, I: 312 nM)

* * *

Molecular target: Btk (Homo sapiens)
Construct: purified from insect cells as a full-length construct containing a N-terminal 6X-His tag; His6 (N); made in house; host or cells: insect cells (Method C)
Assay: Btk in vitro inhibitory activity (one of Method A TR-FRET, Method B electrophoretic mobility shift, Method C radiometric filter binding)
Assay type: biochemical
Conditions: wild-type Btk; read-out: Btk-WT IC50
pIC50: −log10 of the molar value.
measured-parameter: pIC50

1. CC(C)(C)c1nc(C(=O)NCc2ccc(-c3ccnc4[nH]nc(NC5CCCC5)c34)cc2F)no1
2. C=CC(=O)N1CC[C@@H](Nc2n[nH]c3nccc(-c4ccc(CNC(=O)c5cc(-c6ccccc6)on5)c(F)c4)c23)C1
Task item: So which one has the bigger pIC50 here, 1 or 2 ? Answer format: the label of the selected item.
Reply: 1

* * *

Target: Btk (Homo sapiens, UniProt Q06187)
Construct: purified from insect cells as a full-length construct containing a N-terminal 6X-His tag; His6 (N); made in house; host or cells: insect cells (Method C)
Sequence (Q06187 whole entry): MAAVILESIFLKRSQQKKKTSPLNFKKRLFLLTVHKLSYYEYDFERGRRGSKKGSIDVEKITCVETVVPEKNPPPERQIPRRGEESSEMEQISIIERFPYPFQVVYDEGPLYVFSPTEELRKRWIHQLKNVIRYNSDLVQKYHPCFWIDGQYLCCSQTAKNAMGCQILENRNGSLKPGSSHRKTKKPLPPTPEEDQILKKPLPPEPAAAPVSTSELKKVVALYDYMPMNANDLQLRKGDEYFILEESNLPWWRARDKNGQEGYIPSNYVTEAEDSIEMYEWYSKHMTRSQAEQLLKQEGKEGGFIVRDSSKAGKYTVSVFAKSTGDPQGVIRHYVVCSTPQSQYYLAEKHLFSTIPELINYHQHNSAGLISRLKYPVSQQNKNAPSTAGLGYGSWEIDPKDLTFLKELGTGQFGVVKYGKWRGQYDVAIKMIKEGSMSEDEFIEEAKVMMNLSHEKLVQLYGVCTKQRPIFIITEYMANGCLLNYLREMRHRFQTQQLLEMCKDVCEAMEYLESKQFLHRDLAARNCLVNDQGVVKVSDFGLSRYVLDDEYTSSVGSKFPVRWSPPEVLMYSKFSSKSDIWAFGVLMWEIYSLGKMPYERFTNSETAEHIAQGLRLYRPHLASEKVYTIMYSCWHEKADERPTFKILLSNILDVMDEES
Experiment: Btk in vitro inhibitory activity (one of Method A TR-FRET, Method B electrophoretic mobility shift, Method C radiometric filter binding)
Format: biochemical
Details: wild-type Btk; read-out: Btk-WT IC50
pIC50: −log10 of the molar value.
measured-parameter: pIC50

>  <compound>
CNC1CCN(c2n[nH]c3nccc(-c4ccc(CN(C)C(=O)c5nc(C(C)(C)C)no5)c(F)c4)c23)C1 (stereo not drawn) [Example 337]

>  <pIC50>
8.63

$$$$
>  <compound>
C[C@@H]1[C@H](Nc2n[nH]c3nccc(-c4ccc(CNC(=O)c5noc(C(C)(C)C)n5)c(F)c4)c23)CCCN1C(=O)CC#N [Example 139]

>  <pIC50>
7.33

$$$$
>  <compound>
CC#CC(=O)N1CC[C@@H](Nc2n[nH]c3nccc(-c4cccc(NC(=O)c5ccc(C(C)(C)C)cc5)c4C)c23)C1 [Compound 10]

>  <pIC50>
7.88

$$$$
>  <compound>
CC(C)(C)c1noc(C(=O)NCc2ccc(-c3ccnc4[nH]nc(N5CCC(NS(=O)(=O)C6CC6)CC5)c34)cc2F)n1 [Example 224]

>  <pIC50>
10.03

$$$$
>  <compound>
C=CC(=O)N[C@@H]1CCN(c2n[nH]c3nccc(-c4ccc(CN(C)C(=O)c5nc(C(C)(C)C)no5)c(F)c4)c23)C1 [Example 335]

>  <pIC50>
10.29

$$$$

1. C[C@H]1CC[C@@H](Nc2n[nH]c3nccc(-c4ccc(CNC(=O)c5nc6c(s5)CCCC6)c(F)c4)c23)CN1C(=O)N(C)C [Example 415]
2. CC(C)c1cc(C(=O)NCc2ccc(-c3ccnc4[nH]nc(N5CC[C@@H](N)C5)c34)cc2F)on1 [Example 182]
Task item: // which entry has the larger pIC50 value, 1 or 2 ? Mark your answer with the label of the selected entry.
Reply: 2
(2: 7.84, 1: 7.55)
